experimental target: Anti-CD28 Fab (SEQ ID NOs: 202, 203)
Sequence (VH, as listed by the source, chain 1 of 2): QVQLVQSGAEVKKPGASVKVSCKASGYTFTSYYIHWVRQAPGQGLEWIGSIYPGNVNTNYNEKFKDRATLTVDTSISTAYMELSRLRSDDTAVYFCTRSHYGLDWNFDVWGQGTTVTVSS
Sequence (VL, as listed by the source, chain 2 of 2): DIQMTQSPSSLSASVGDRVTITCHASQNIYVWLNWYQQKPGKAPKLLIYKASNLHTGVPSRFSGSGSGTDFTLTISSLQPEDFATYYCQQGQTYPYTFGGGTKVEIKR
procedure summary: phage binding ELISA on captured Fab;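 note: clonal phage supernatants added briefly to wells pre-incubated with CD28 antigen or with blocking buffer only, then washed, bound phage read by ELISA using HRP-coupled anti-M13 antibody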
Anti-CD28 Fab (SEQ ID NOs: 202, 203) signal less than 0.7 is satisfied; Anti-CD28 Fab (SEQ ID NOs: 202, 203) signal greater than or equal to 0.7 is not satisfied.

{"binder": "YCDGHSPQYLWKCL [Phage-822]", "label": "not satisfied"}
{"binder": "YCDGHDEQYLMKCL [Phage-879]", "label": "satisfied"}
{"binder": "YCDGHSTEYMWKCL [Phage-874]", "label": "satisfied"}
{"binder": "YCDGHTAQYMWKCL [Phage-812]", "label": "not satisfied"}
{"binder": "YCAGHSSEYLQKCL [Phage-760]", "label": "not satisfied"}
{"binder": "YCAGHSAEYIQKCL [Phage-823]", "label": "not satisfied"}
{"binder": "YCDGHLAEYIQKCL [Phage-759]", "label": "not satisfied"}
{"binder": "YCEGHIGDYIAKCL [Phage-857]", "label": "satisfied"}

Values from patent US20260274955A1
